These data points were gathered from patent US20220040297A1.

experimentalSystem: CD3ε homodimer protein (human, UniProt P07766 23-126, limits assumed)
Sequence (P07766 23-126 limits assumed): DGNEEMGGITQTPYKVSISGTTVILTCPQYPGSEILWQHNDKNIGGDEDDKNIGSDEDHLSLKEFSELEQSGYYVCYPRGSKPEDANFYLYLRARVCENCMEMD
methodNotes: SPR, immobilized CD3ε homodimer;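 further: biacore T200 surface plasmon resonance at 25 °C, antibody variants flowed as analytes over amine-coupled CD3ε homodimer on a CM4 chip, variant binding amount divided by that of GLS3000 antibody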
assayReadout: ratio of amounts bound (vs GLS3000)

>  <binder>
GLS3000 N28G (antibody, name in Kabat numbering, V domains shown, one-arm format as m2) VH: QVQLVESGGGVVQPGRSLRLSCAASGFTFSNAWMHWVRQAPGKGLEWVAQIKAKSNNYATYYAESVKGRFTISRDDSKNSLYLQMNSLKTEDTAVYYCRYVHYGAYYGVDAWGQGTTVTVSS VL: DIVMTQSPLSLPVTPGEPASISCRSSQSLVHSGRNTYLHWYQQKPGQAPRLLIYKVSNRFSGVPDRFSGSGSGTDFTLKISRVEAEDVGVYYCGQGTQVPYTFGQGTKLEIK

>  <ratio of amounts bound (vs GLS3000)>
0.46

$$$$
>  <binder>
GLS3000 G91P (antibody, name in Kabat numbering, V domains shown, one-arm format as m2) VH: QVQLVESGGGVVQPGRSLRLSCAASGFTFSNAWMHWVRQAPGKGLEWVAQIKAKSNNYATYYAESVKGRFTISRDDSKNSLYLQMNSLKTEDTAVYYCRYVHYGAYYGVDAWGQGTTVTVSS VL: DIVMTQSPLSLPVTPGEPASISCRSSQSLVHSNRNTYLHWYQQKPGQAPRLLIYKVSNRFSGVPDRFSGSGSGTDFTLKISRVEAEDVGVYYCGQPTQVPYTFGQGTKLEIK

>  <ratio of amounts bound (vs GLS3000)>
0.27

$$$$

Turning to the following binder.
Could you share which ratio of amounts bound (vs GLS3000) value was measured for GLS3000 K50L (antibody, name in Kabat numbering, V domains shown, one-arm format as m2) VH: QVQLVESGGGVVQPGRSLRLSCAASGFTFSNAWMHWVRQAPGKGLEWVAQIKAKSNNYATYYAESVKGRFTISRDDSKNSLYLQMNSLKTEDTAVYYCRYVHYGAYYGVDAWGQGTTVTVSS VL: DIVMTQSPLSLPVTPGEPASISCRSSQSLVHSNRNTYLHWYQQKPGQAPRLLIYLVSNRFSGVPDRFSGSGSGTDFTLKISRVEAEDVGVYYCGQGTQVPYTFGQGTKLEIK ?
0.24
